Cited source: ChEMBL document CHEMBL4334526

assay.target: Histone deacetylase 2 (Homo sapiens, UniProt Q92769)
Sequence (Q92769 whole entry): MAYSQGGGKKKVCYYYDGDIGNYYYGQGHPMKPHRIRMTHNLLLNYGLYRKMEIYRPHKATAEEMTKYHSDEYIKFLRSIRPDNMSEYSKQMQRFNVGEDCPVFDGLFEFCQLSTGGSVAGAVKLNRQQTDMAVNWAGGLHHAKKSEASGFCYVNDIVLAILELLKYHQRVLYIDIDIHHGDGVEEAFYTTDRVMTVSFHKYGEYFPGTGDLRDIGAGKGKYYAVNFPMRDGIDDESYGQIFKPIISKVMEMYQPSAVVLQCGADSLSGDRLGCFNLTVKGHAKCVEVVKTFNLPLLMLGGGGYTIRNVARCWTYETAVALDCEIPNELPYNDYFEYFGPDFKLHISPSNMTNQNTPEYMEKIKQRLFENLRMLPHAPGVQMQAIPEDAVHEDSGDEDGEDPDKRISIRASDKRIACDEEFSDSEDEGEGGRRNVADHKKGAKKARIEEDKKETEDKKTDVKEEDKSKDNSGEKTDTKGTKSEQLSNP
experiment.notes: Inhibition of recombinant human full length C-terminal FLAG-tagged HDAC2 expressed in baculovirus infected Sf9 insect cells using Boc-Lys(epsilon-acetyl)-AMC as substrate incubated for 90 mins by fluorescence assay
value.kind: pIC50
Value format note: pIC50 is -log10 of concentration (mol/L); just state the number.

Example results:
Cc1cc(C)cc(C(=O)N(CCCCCC(=O)Nc2ccccc2N)CC(=O)NC2CCCCC2)c1 :: 5.18
CN(C)c1ccc(C(=O)N(CCCCCC(=O)Nc2ccccc2N)CC(=O)NCc2ccccc2)cc1 :: 5.91

[Q] Complete the entry with pIC50 for `CN(C)c1ccc(C(=O)N(CCCCCC(=O)Nc2cc(F)ccc2N)CC(=O)NCc2ccccc2)cc1`
[A] 5.51

[Q] Complete the entry with pIC50 for `Nc1ccccc1NC(=O)CCCCCN(CC(=O)NCc1ccccc1)C(=O)c1cccc2ccccc12`
[A] 5.72

[Q] Complete the entry with pIC50 for `Cc1cc(C)cc(C(=O)N(CCCCCC(=O)Nc2cc(-c3ccccc3)ccc2N)CC(=O)NCc2ccccc2)c1`
[A] 5.74

[Q] Complete the entry with pIC50 for `CN(C)c1ccc(C(=O)N(CC(=O)NCc2ccccc2)Cc2ccc(C(=O)Nc3ccccc3N)cc2)cc1`
[A] 6.55

[Q] Complete the entry with pIC50 for `Nc1ccccc1NC(=O)CCCCCN(CC(=O)NC1CCCCC1)C(=O)c1cccc2ccccc12`
[A] 5.27

[Q] Complete the entry with pIC50 for `Cc1ccc(CNC(=O)CN(CCCCCC(=O)Nc2ccccc2N)C(=O)c2cc(C)cc(C)c2)cc1`
[A] 5.30
